- system: human ENT1 (Homo sapiens)
- testSummary: ENT1 binding assay (competition with Sahenta-DY647 on JAR cells)
- Design: JAR cells expressing ENT1 were bought from ATCC; host or cells: JAR cells
- conditionInfo: binned IC50
pIC50: −log10 of the molar value.
observable: pIC50

Could you share which pIC50 value was measured for `CCCNc1nc(N(CCOC)CCOC)nc2c(N3CCN(C)C(=O)C3)nc(N(CCOC)CCOC)nc12` ?
6.30 to 7.00

Could you share which pIC50 value was measured for `CCOCCN(CCOCC)c1nc(N2CCN(C)C(=O)C2)c2nc(N(CCOCC)CCOCC)nc(N(C)Cc3ccccc3)c2n1` ?
> 7.00

Could you share which pIC50 value was measured for `COCCN(CCOC)c1nc(N2CC(O)(C(F)(F)F)C2)c2nc(N(CCOC)CCOC)nc(N3CCn4ncnc4C3)c2n1` ?
6.30 to 7.00

Could you share which pIC50 value was measured for `CCCN(C)c1nc(N(CCOC)CCOC)nc2c(N3CCN(C)C(=O)C3)nc(N(CCOC)CCOC)nc12` ?
6.30 to 7.00

Could you share which pIC50 value was measured for `COCCN(CCOC)c1nc(N2CCC(OC)CC2)c2nc(N(CCOC)CCOC)nc(OCc3cnn(C(C)C)c3)c2n1` ?
6.00 to 6.30

Could you share which pIC50 value was measured for `COCCN(CCOC)c1nc(N2CC(F)C2)c2nc(N(CCOC)CCOC)nc(N3CCC(OC)CC3)c2n1` ?
6.30 to 7.00

Could you share which pIC50 value was measured for `COCCN(CCOC)c1nc(N2CCC(OC)CC2)c2nc(N3CCn4nncc4C3)nc(N3CCN(C)C(=O)C3)c2n1` ?
6.30 to 7.00

Could you share which pIC50 value was measured for `COCCN(CCOC)c1nc(N2CCc3cnn(C)c3C2)c2nc(N(CCOC)CCOC)nc(N3CCN(C)C(=O)C3)c2n1` ?
> 7.00

Could you share which pIC50 value was measured for `COCCN(CCOC)c1nc(N2CCN(c3ncn(C)n3)CC2)c2nc(N(CCOC)CCOC)nc(N3CCC(OC)CC3)c2n1` ?
6.30 to 7.00

Could you share which pIC50 value was measured for `COCCN(CCOC)c1nc(N2CCC(OC)CC2)c2nc(N(CCOC)CCOC)nc(N3CCC(F)CC3)c2n1` ?
> 7.00

Could you share which pIC50 value was measured for `COCCN(CCOC)c1nc(N2CCN(C)C(=O)C2)c2nc(N(CCOC)Cc3cc(OC)c(OC)c(OC)c3)nc(N3CCC(OC)CC3)c2n1` ?
> 7.00

Could you share which pIC50 value was measured for `COCCN(CCOC)c1nc(N2CCC(OC)CC2)c2nc(N(CCO)CCO)nc(N3CC(=O)N(C)C(C)(C)C3)c2n1` ?
> 7.00

Could you share which pIC50 value was measured for `COCCN(CCOC)c1nc(N2CCN(c3ncccn3)CC2)c2nc(N(CCOC)CCOC)nc(N3CCC(OC)CC3)c2n1` ?
6.00 to 6.30

Could you share which pIC50 value was measured for COCCN(CCOC)c1nc(N2CCC(OC)CC2)c2nc(N(CCOC)CCOC)nc(NCC3CCOC3)c2n1 (stereo not shown) ?
6.00 to 6.30

Could you share which pIC50 value was measured for `COCCN(CCOC)c1nc(N2CCC(OC)CC2)c2nc(NCCCn3ccnc3)nc(N3CCC(OC)CC3)c2n1` ?
6.00 to 6.30

Could you share which pIC50 value was measured for `COCCN(CCOC)c1nc(N2CCN(C)C(=O)C2)c2nc(N(CCOC)CCOC)nc(NCC(C)C)c2n1` ?
6.30 to 7.00

Could you share which pIC50 value was measured for `COCCN(CCOC)c1nc(N2CCNC(=O)C2)c2nc(N(CCOC)CCOC)nc(N3CCC(OC)CC3)c2n1` ?
6.00 to 6.30

Could you share which pIC50 value was measured for `COCCN(CCOC)c1nc(N2CCC(OC)CC2)c2nc(N(CCOC)CCOC)nc(NCc3ccc(F)c(Cl)c3)c2n1` ?
> 7.00

Could you share which pIC50 value was measured for `COCCN(CCOC)c1nc(N2CCC(OC)CC2)c2nc(N(CCOC)CCOC)nc(N(C)Cc3ccc(OC)c(OC)c3)c2n1` ?
> 7.00

Could you share which pIC50 value was measured for `COCCN(CCOC)c1nc(N2CCc3cc(OC)c(OC)cc3C2)c2nc(N(CCOC)CCOC)nc(N3CCc4cc(OC)c(OC)cc4C3)c2n1` ?
6.30 to 7.00

Could you share which pIC50 value was measured for `COCCN(CCOC)c1nc(N2CCC(F)(F)CC2)c2nc(N(CCOC)CCOC)nc(N3CCC(OC)CC3)c2n1` ?
> 7.00

Could you share which pIC50 value was measured for `COCCN(CCOC)c1nc(N2CCN(c3ncn(C)n3)CC2)c2nc(N(CCOC)CCOC)nc(NCc3cccc(Cl)c3)c2n1` ?
> 7.00

Could you share which pIC50 value was measured for `COCCN(CCOC)c1nc(N2CCS(=O)(=O)CC2)c2nc(N(CCOC)CCOC)nc(N3CCN(c4ncn(C)n4)CC3)c2n1` ?
6.30 to 7.00

Could you share which pIC50 value was measured for `COCCN(CCOC)c1nc(N2CCC(OC)CC2)c2nc(N(CCOC)CCOCCCN3CCOCC3)nc(N3CCC(OC)CC3)c2n1` ?
6.00 to 6.30

Could you share which pIC50 value was measured for `COCCN(CCOC)c1nc(N2CCC(OC)CC2)c2nc(N(CCO)CCO)nc(N3CCC(OC)CC3)c2n1` ?
6.00 to 6.30

Could you share which pIC50 value was measured for `COCCN(CCOC)c1nc(N2CCN(c3ncn(C)n3)CC2)c2nc(N(CCOC)CCOC)nc(N3CCN(c4ncn(C)n4)CC3)c2n1` ?
6.30 to 7.00

Could you share which pIC50 value was measured for `COCCN(CCOC)c1nc(N2CCN(C)C(=O)C2)c2nc(N3CCc4[nH]cnc4C3)nc(N3CCC(OC)CC3)c2n1` ?
6.00 to 6.30

Could you share which pIC50 value was measured for `COCCN(CCOC)c1nc(N2CCN(C)C(=O)C2)c2nc(N(CCOC)CCOC)nc(N(C)C)c2n1` ?
6.00 to 6.30

* * *

Give measured IC50 for each item. Keep answers brief.
- system: human ENT1 (Homo sapiens, UniProt Q99808)
- Sequence (Q99808 whole entry): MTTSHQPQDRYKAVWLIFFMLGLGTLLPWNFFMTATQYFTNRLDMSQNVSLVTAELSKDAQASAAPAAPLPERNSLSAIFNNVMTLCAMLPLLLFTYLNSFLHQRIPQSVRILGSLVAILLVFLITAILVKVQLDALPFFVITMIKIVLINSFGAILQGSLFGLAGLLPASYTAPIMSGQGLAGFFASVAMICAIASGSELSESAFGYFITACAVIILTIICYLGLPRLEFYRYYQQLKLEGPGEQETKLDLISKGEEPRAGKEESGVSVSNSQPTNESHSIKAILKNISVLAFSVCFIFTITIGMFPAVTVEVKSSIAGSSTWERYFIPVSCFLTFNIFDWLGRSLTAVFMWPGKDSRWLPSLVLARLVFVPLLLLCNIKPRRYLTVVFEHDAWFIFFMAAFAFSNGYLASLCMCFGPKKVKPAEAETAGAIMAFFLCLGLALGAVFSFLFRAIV
- testSummary: ENT1 binding assay (competition with Sahenta-DY647 on JAR cells)
- Parameters: JAR cells expressing ENT1 were bought from ATCC; host or cells: JAR cells
- conditionInfo: binned IC50

# value lookup — system human ENT1 (Homo sapiens, UniProt Q99808), readout IC50, item COCCN(CCOC)c1nc(N2CCN(c3ncn(C)n3)CC2)c2nc(N(CCOC)CCOC)nc(NCc3cccc(C#N)c3)c2n1 [Compound 224]
< 100 nM

# value lookup — system human ENT1 (Homo sapiens, UniProt Q99808), readout IC50, item COCCN(CCOC)c1nc(N2CCCCC2)c2nc(N(CCO)CCO)nc(N3CCN(c4nccs4)CC3)c2n1 [Compound 39]
< 100 nM

# value lookup — system human ENT1 (Homo sapiens, UniProt Q99808), readout IC50, item COCCN(CCOC)c1nc(N2CCN(c3nnc(C)o3)CC2)c2nc(N(CCOC)CCOC)nc(N3CCN(c4nnc(C)o4)CC3)c2n1 [Compound 130]
500 to 1000 nM

# value lookup — system human ENT1 (Homo sapiens, UniProt Q99808), readout IC50, item CCN1CCN(c2nc(N(CCOC)CCOC)nc3c(N4CCC(OC)CC4)nc(N(CCOC)CCOC)nc23)CC1=O [Compound 198]
100 to 500 nM

# value lookup — system human ENT1 (Homo sapiens, UniProt Q99808), readout IC50, item COCCN(CCOC)c1nc(N2CCS(=O)(=O)CC2)c2nc(N(CCOC)CCOC)nc(NCc3ccccc3)c2n1 [Compound 7]
< 100 nM

# value lookup — system human ENT1 (Homo sapiens, UniProt Q99808), readout IC50, item CCN(CCN1CCCCC1)c1nc(N2CCC(OC)CC2)c2nc(N(CCOC)CCOC)nc(N3CCC(OC)CC3)c2n1 [Compound 133]
500 to 1000 nM

# value lookup — system human ENT1 (Homo sapiens, UniProt Q99808), readout IC50, item COCCN(CCOC)c1nc(N2CCc3c(ncn3C)C2)c2nc(N(CCOC)CCOC)nc(N3CCN(C)C(=O)C3)c2n1 [Compound 253]
100 to 500 nM

* * *

- system: human ENT1 (Homo sapiens)
- testSummary: ENT1 binding assay (competition with Sahenta-DY647 on JAR cells)
- Set-up: JAR cells expressing ENT1 were bought from ATCC; host or cells: JAR cells
- conditionInfo: binned IC50
- Method: Purpose. […] By measuring the fluorescence at the end of the assay we could assess the binding potency of the compounds of the present invention. JAR cells were resuspended in the described buffer. Compounds of the present invention and Sahenta-DY647 were diluted 200× in the described buffer. The total volume of the reaction was 100 μL (50 μL of cells, 25 μL of the compounds of the present invention and 25 μL of Sahenta-DY647) in a 96 well plate, U-bottom (Greiner®, #650-180). […]
Give measured IC50 for each item. Keep answers brief.

Could you share which IC50 value was measured for COC(C)CN(CC(C)OC)c1nc(N2CCC(OC)CC2)c2nc(N(CCO)CCO)nc(N3CCN(C)C(=O)C3)c2n1 (stereo not drawn) ?
100 to 500 nM

Could you share which IC50 value was measured for `COCCN(CCCS(C)(=O)=O)c1nc(N2CCN(C)C(=O)C2)c2nc(N(CCOC)CCOC)nc(N3CCC(OC)CC3)c2n1` ?
< 100 nM

Could you share which IC50 value was measured for `COCCN(CCOC)c1nc(N2CCC(F)(F)C2)c2nc(N(CCOC)CCOC)nc(N3CCC(OC)CC3)c2n1` ?
100 to 500 nM

Could you share which IC50 value was measured for `COCCCCNc1nc(N(CCOC)CCOC)nc2c(N3CCC(OC)CC3)nc(N(CCOC)CCOC)nc12` ?
500 to 1000 nM

Could you share which IC50 value was measured for `COCCN(Cc1ccc(C(=O)O)c(C)c1)c1nc(N2CCN(C)C(=O)C2)c2nc(N(CCOC)CCOC)nc(N3CCC(OC)CC3)c2n1` ?
< 100 nM

Could you share which IC50 value was measured for `COCCN(CCOC)c1nc(N2CCC(OC)CC2)c2nc(N(CCO)CCO)nc(N3CC(=O)N(C)C(=O)C3)c2n1` ?
< 100 nM

Could you share which IC50 value was measured for `COCCN(CCOC)c1nc(N2CCC(OC)CC2)c2nc(OCc3ccnc(C)c3)nc(N3CCC(OC)CC3)c2n1` ?
100 to 500 nM

Could you share which IC50 value was measured for `COCCN(CCOC)c1nc(N2CCC(OC)CC2)c2nc(N3CCn4ccnc4C3)nc(N3CCN(C)C(=O)C3)c2n1` ?
100 to 500 nM

Could you share which IC50 value was measured for `COCCN(CCOC)c1nc(N2CCC(F)(F)CC2)c2nc(N(CCO)CCO)nc(N3CCC(F)(F)CC3)c2n1` ?
100 to 500 nM

Could you share which IC50 value was measured for `CCCN(C)c1nc(N(CCOC)CCOC)nc2c(N3CCn4ncnc4C3)nc(N(CCOC)CCOC)nc12` ?
100 to 500 nM

Could you share which IC50 value was measured for `COCCN(CCOC)c1nc(N2CCC(OC)CC2)c2nc(N(CCOC)CCOC)nc(NCc3cnco3)c2n1` ?
500 to 1000 nM

Could you share which IC50 value was measured for `COCCN(Cc1ccc(C(=O)O)c(C(F)(F)F)c1)c1nc(N2CCN(C)C(=O)C2)c2nc(N(CCOC)CCOC)nc(N3CCC(OC)CC3)c2n1` ?
< 100 nM

Could you share which IC50 value was measured for `COCCN(CCOC)c1nc(N2CC[C@@H](F)C2)c2nc(N(CCOC)CCOC)nc(N3CCC(OC)CC3)c2n1` ?
100 to 500 nM

Could you share which IC50 value was measured for `COCCN(CCOC)c1nc(N2CCC(OC)CC2)c2nc(N(CCOC)CCOC)nc(NCc3cccc(OC)c3)c2n1` ?
< 100 nM

Could you share which IC50 value was measured for `COCCN(CCOC)c1nc(N2CCC(OC)CC2)c2nc(N(CCOC)CCOC)nc(OCc3ccc(F)c(OC)c3)c2n1` ?
< 100 nM

Could you share which IC50 value was measured for `COCCN(CCOC)c1nc(N2CC[C@H](F)C2)c2nc(N(CCOC)CCOC)nc(N3CCC(OC)CC3)c2n1` ?
< 100 nM

Could you share which IC50 value was measured for `COCCN(CCOC)c1nc(N2CCN(C)C(=O)C2)c2nc(N(CCOC)CCOC)nc(N(C)Cc3cccc(Cl)c3)c2n1` ?
< 100 nM

Could you share which IC50 value was measured for `COCCN(CCOC)c1nc(N2CCC(OC)CC2)c2nc(N(CCOC)CCOC)nc(N(C)Cc3ccccn3)c2n1` ?
100 to 500 nM

Could you share which IC50 value was measured for `COCCCN(CCCOC)c1nc(N2CCC(OC)CC2)c2nc(N(CCCO)CCCO)nc(N3CCN(C)C(=O)C3)c2n1` ?
< 100 nM

Could you share which IC50 value was measured for `COCCN(CCOC)c1nc(N2CCN(C)C(=O)C2)c2nc(N(CCOC)CCOC)nc(NCc3cccc(C#N)c3)c2n1` ?
< 100 nM

Could you share which IC50 value was measured for `COCCN(CCOC)c1nc(N2CCC(OC)CC2)c2nc(N(CCOC)CCC(N)=O)nc(N3CCC(OC)CC3)c2n1` ?
500 to 1000 nM

Could you share which IC50 value was measured for `COCCN(CCOC)c1nc(N2CCN(C)C(=O)C2)c2nc(N(CCOC)Cc3ccc(OC)c(OC)c3OC)nc(N3CCC(OC)CC3)c2n1` ?
< 100 nM

Could you share which IC50 value was measured for `COCCN(CCOC)c1nc(N2CCC(OC)CC2)c2nc(N(CCOC)CCOC)nc(NCc3cnn(C)c3)c2n1` ?
500 to 1000 nM

Could you share which IC50 value was measured for `COCCN(CCOC)c1nc(N2CCN(c3ncn(C)n3)CC2)c2nc(N(CCOC)CCOC)nc(N(C)Cc3cccc(S(C)(=O)=O)c3)c2n1` ?
500 to 1000 nM

Could you share which IC50 value was measured for `COCCN(Cc1ccc(C(=O)O)c(F)c1)c1nc(N2CCN(C)C(=O)C2)c2nc(N(CCOC)CCOC)nc(N3CCC(OC)CC3)c2n1` ?
< 100 nM

Could you share which IC50 value was measured for `CCN(CCN1CCCC1)c1nc(N2CCC(OC)CC2)c2nc(N(CCOC)CCOC)nc(N3CCC(OC)CC3)c2n1` ?
500 to 1000 nM

Could you share which IC50 value was measured for `CCOCCN(CCOCC)c1nc(N2CCN(C)C(=O)C2)c2nc(N(CCOCC)CCOCC)nc(N3CCC(OC)CC3)c2n1` ?
< 100 nM

Just for reference, patent US20230146675A1 is where these values come from.
